system: VacV; type: cell-based, Vaccinia virus
quantity-name: infection of VacV (relative percent infection)

Enquiry: Which measured infection of VacV (relative percent infection) value corresponds to Cc1cc([N+](=O)[O-])ccc1NS(=O)(=O)c1cc(Cl)ccc1Cl ?
Return: did not diminish

Enquiry: Which measured infection of VacV (relative percent infection) value corresponds to Cc1cc(/C=C2\SC(=O)N(c3ccccc3)C2=O)c(C)n1-c1cccnc1 ?
Return: did not diminish

Enquiry: Which measured infection of VacV (relative percent infection) value corresponds to CN(C)c1ccc(/C=C/c2c(F)cccc2F)cc1 ?
Return: did not diminish

* * *

system: VSV; assay type: cell-based, Vesicular Stomatitis virus
quantity-name: infection of VSV (relative percent infection)

Enquiry: Which measured infection of VSV (relative percent infection) value corresponds to Cc1cc(/C=C2\SC(=O)N(c3ccccc3)C2=O)c(C)n1-c1cccnc1 ?
Return: did not diminish

Enquiry: Which measured infection of VSV (relative percent infection) value corresponds to Cc1cc([N+](=O)[O-])ccc1NS(=O)(=O)c1cc(Cl)ccc1Cl ?
Return: did not diminish

Enquiry: Which measured infection of VSV (relative percent infection) value corresponds to CN(C)c1ccc(/C=C/c2c(F)cccc2F)cc1 ?
Return: did not diminish

src = patent US10624949B1
